# procedure.summary: chemical recovery into PDMS from spiked human plasma; higher = better extraction
# test.context: pooled human plasma; extraction method: PES with PDMS; equilibration time (d): 3
Label scheme, based on chemical recovery into PDMS: low: < 20%; medium: ≥ 20% and < 40%; high: ≥ 40%

Q: Place this compound in its band: C#CC(C)(C)NC(=O)c1cc(Cl)cc(Cl)c1 [Propyzamide]
A: medium

Q: Place this compound in its band: Cc1ccc(S(N)(=O)=O)cc1 [p-Toluenesulfonamide]
A: low

Q: Place this compound in its band: O=c1c2ccccc2[nH]c2ccccc12 [Acridone]
A: low

Q: Place this compound in its band: N#Cc1nn(-c2c(Cl)cc(C(F)(F)F)cc2Cl)c(N)c1SC(F)(F)F [Fipronil sulfide]
A: medium

Q: Place this compound in its band: c1ccc(-c2cccc3ccccc23)cc1 [1-Phenylnaphthalene]
A: high

Q: Place this compound in its band: Brc1ccc(Oc2cc(Br)c(Br)cc2Br)c(Br)c1 [BDE99]
A: high

Q: Place this compound in its band: CC[C@H](C)[C@H]1O[C@]2(C=C[C@@H]1C)C[C@@H]1C[C@@H](C/C=C(\C)[C@@H](O[C@H]3C[C@H](OC)[C@@H](O[C@H]4C[C@H](OC)[C@@H](NC)[C@H](C)O4)[C@H](C)O3)[C@@H](C)/C=C/C=C3\CO[C@@H]4[C@H](O)C(C)=C[C@@H](C(=O)O1)[C@]34O)O2 [Emamectin B1a]
A: low

Q: Place this compound in its band: Clc1cc(Cl)c(-c2cc(Cl)c(Cl)c(Cl)c2Cl)cc1Cl [PCB180]
A: high

Q: Place this compound in its band: CC(=O)C1(C)CC2=C(CCCC2(C)C)CC1C (stereo not given) [ISO E Super]
A: medium

Q: Place this compound in its band: CCNC(=O)[C@@H](C)OC(=O)Nc1ccccc1 [Carbetamide]
A: low

====

# procedure.summary: chemical recovery by SPE of plasma after PDMS sampling; higher = better extraction
# test.context: pooled human plasma; extraction method: HLB SPE of plasma after PES; equilibration time (d): 1
What chemical recovery by SPE of plasma was measured for each of the following?
Report the figure in % without appending any unit label.

Q: Name the recorded chemical recovery by SPE of plasma for `Brc1cc(Br)c(Oc2cc(Br)c(Br)cc2Br)c(Br)c1` .
A: 1.62

Q: Name the recorded chemical recovery by SPE of plasma for O=P(c1ccccc1)(c1ccccc1)c1ccccc1 [Triphenylphosphine oxide] .
A: 8.28

Q: Name the recorded chemical recovery by SPE of plasma for `C#C[C@]1(O)C=C[C@H]2[C@@H]3CCC4=CC(=O)CC[C@@H]4[C@H]3CC[C@@]21CC` .
A: 22.4

Q: Name the recorded chemical recovery by SPE of plasma for `C=CC[C@@H]1/C=C(\C)C[C@H](C)C[C@H](OC)[C@H]2O[C@@](O)(C(=O)C(=O)N3CCCC[C@H]3C(=O)O[C@H](/C(C)=C/[C@@H]3CC[C@@H](O)[C@H](OC)C3)[C@H](C)[C@@H](O)CC1=O)[C@H](C)C[C@@H]2OC` .
A: 5.46

Q: Name the recorded chemical recovery by SPE of plasma for `ClC1=C(Cl)[C@]2(Cl)[C@@H]3[C@@H]4C[C@@H]([C@H]5O[C@@H]45)[C@@H]3[C@@]1(Cl)C2(Cl)Cl` .
A: 0.594

Q: Name the recorded chemical recovery by SPE of plasma for Cc1ccc(S(N)(=O)=O)cc1 [p-Toluenesulfonamide] .
A: 51.8

Q: Name the recorded chemical recovery by SPE of plasma for `O=C(/C=C/C=C/c1ccc2c(c1)OCO2)N1CCCCC1` .
A: 1.77

Q: Name the recorded chemical recovery by SPE of plasma for `Clc1ccc2[nH]nnc2c1` .
A: 55.2

Q: Name the recorded chemical recovery by SPE of plasma for CC(=O)N1CCN(c2ccc(OC[C@H]3CO[C@](Cn4ccnc4)(c4ccc(Cl)cc4Cl)O3)cc2)CC1 (racemic) .
A: 17.2

Q: Name the recorded chemical recovery by SPE of plasma for `O=C(O)C(F)(F)C(F)(F)C(F)(F)F` .
A: 24.1

Q: Name the recorded chemical recovery by SPE of plasma for `CC(C)Nc1nc(N)nc(Cl)n1` .
A: 30.4

Q: Name the recorded chemical recovery by SPE of plasma for CCOC(=O)CC(O)(CC(=O)OCC)C(=O)OCC [Triethylcitrate] .
A: 18.1

Q: Name the recorded chemical recovery by SPE of plasma for `C[C@]12C=CC(=O)C=C1CC[C@@H]1[C@@H]2C(=O)C[C@@]2(C)[C@H]1CC[C@]2(O)C(=O)CO` .
A: 41.6

Q: Name the recorded chemical recovery by SPE of plasma for CC(C)C(=O)Nc1ccc([N+](=O)[O-])c(C(F)(F)F)c1 [Flutamide] .
A: 21.7

Q: Name the recorded chemical recovery by SPE of plasma for `OC(Cn1cncn1)(Cn1cncn1)c1ccc(F)cc1F` .
A: 42.2

Q: Name the recorded chemical recovery by SPE of plasma for `Cc1ccc2[nH]nnc2c1` .
A: 45.5

Q: Name the recorded chemical recovery by SPE of plasma for `Cc1cc(C2CC2)nc(Nc2ccccc2)n1` .
A: 0.89

Q: Name the recorded chemical recovery by SPE of plasma for `Oc1ccc(Cl)cc1` .
A: 60

Q: Name the recorded chemical recovery by SPE of plasma for `C[C@H]1C[C@@H]2[C@H]([C@@H](O)C[C@@]3(C)[C@H]2CC[C@]3(O)C(=O)CO)[C@@]2(C)C=CC(=O)C=C12` .
A: 59.2

Q: Name the recorded chemical recovery by SPE of plasma for `O=S(=O)(O)c1ccc2[nH]c(-c3ccccc3)nc2c1` .
A: 42.2

Q: Name the recorded chemical recovery by SPE of plasma for `CCCOc1nn(C(=O)NS(=O)(=O)c2ccccc2C(=O)OC)c(=O)n1C` .
A: 27.1

Q: Name the recorded chemical recovery by SPE of plasma for `COC(=O)Nc1nc2cc(C(=O)c3ccccc3)ccc2[nH]1` .
A: 18.4

Q: Name the recorded chemical recovery by SPE of plasma for `N#C/N=C1\SCCN1Cc1ccc(Cl)nc1` .
A: 39.3

Q: Name the recorded chemical recovery by SPE of plasma for `Brc1cc(Br)c(Oc2cc(Br)c(Br)cc2Br)cc1Br` .
A: 2.71

Q: Name the recorded chemical recovery by SPE of plasma for `Cc1cnc2c(C(=O)O)c(Cl)ccc2c1` .
A: 54.5

Q: Name the recorded chemical recovery by SPE of plasma for `c1cc2ccc3cccc4ccc(c1)c2c34` .
A: 4.17

Q: Name the recorded chemical recovery by SPE of plasma for `O=C(O)c1ccccc1O` .
A: 61.1

Q: Name the recorded chemical recovery by SPE of plasma for c1ccc2sc(SNC3CCCCC3)nc2c1 [N-Cyclohexyl-2-benzothiazole-sulfenamide] .
A: 42.3

Q: Name the recorded chemical recovery by SPE of plasma for O=P1(NCCCl)OCCCN1CCCl (stereo not given) [Ifosfamide] .
A: 54.9

Q: Name the recorded chemical recovery by SPE of plasma for ClC1=C(Cl)C2(Cl)C3C4C=CC(C4)C3C1(Cl)C2(Cl)Cl (stereo not given) .
A: 1.3

====

# procedure.summary: chemical recovery from spiked human plasma; higher = better extraction
# test.context: pooled human plasma; extraction method: SPE only (HLB 96-well)
assay.readout: chemical recovery (%)
Report the figure in % without appending any unit label.

Q: Name the recorded chemical recovery for `Cc1ccc(C)c(O)c1C` .
A: 0.62

Q: Name the recorded chemical recovery for CC(C)CC(C)(O)C#CC(C)(O)CC(C)C (centres undefined) .
A: 47.5

Q: Name the recorded chemical recovery for `Nc1nc(N)nc(NC2CC2)n1` .
A: 2.36

Q: Name the recorded chemical recovery for `C[Si](Cn1cncn1)(c1ccc(F)cc1)c1ccc(F)cc1` .
A: 39.4

====

# procedure.summary: chemical recovery from spiked human plasma; higher = better extraction
# test.context: pooled human plasma; extraction method: SPE only (HLB 96-well)
assay.readout: chemical recovery (%)
Report the figure in % without appending any unit label.

Q: Name the recorded chemical recovery for Nc1ccc2c(n1)[nH]c1ccccc12 [2-Amino-9H-pyrido[2,3-b]indole (AalphaC)] .
A: 28.5

Q: Name the recorded chemical recovery for CC(Oc1ccc(Oc2nc3ccc(Cl)cc3o2)cc1)C(=O)O (stereo unspecified) .
A: 26.7

Q: Name the recorded chemical recovery for `c1ccc2c(c1)[nH]c1cnccc12` .
A: 39.6

Q: Name the recorded chemical recovery for `CC(c1ccc(O)cc1)c1ccc(O)cc1` .
A: 51

Q: Name the recorded chemical recovery for CC(C)C1(C)N=C(c2ncccc2C(=O)O)NC1=O (stereo unspecified) .
A: 44.7

Q: Name the recorded chemical recovery for O=C(O)C1C(C(=O)O)C2(Cl)C(Cl)=C(Cl)C1(Cl)C2(Cl)Cl (stereo unspecified) .
A: 23.9

====

# procedure.summary: chemical recovery by SPE of plasma after PDMS sampling; higher = better extraction
# test.context: pooled human plasma; extraction method: HLB SPE of plasma after PES; equilibration time (d): 3
Label 1 (yes) when chemical recovery by SPE of plasma is at or above 10%; anything below gets 0 (no).

Q: Does O=P(OCCCl)(OCCCl)OCCCl [Tris(2-chloroethyl)phosphate] have a reported chemical recovery by SPE of plasma of at least 10%?
A: 1 (yes)

Q: Does OC(Cc1ccccc1Cl)(Cn1cncn1)C1(Cl)CC1 (stereo not drawn) [Prothioconazole-desthio] have a reported chemical recovery by SPE of plasma of at least 10%?
A: 0 (no)

Q: Does COCCN(C(=O)CCl)c1c(C)cccc1C [Dimethachlor] have a reported chemical recovery by SPE of plasma of at least 10%?
A: 0 (no)

Q: Does CCCCn1cc[n+](C)c1 [1-Butyl-3-methyl-imidazolium] have a reported chemical recovery by SPE of plasma of at least 10%?
A: 0 (no)

Q: Does O=C1CC2(CCCCC2)CN1 [Gabapentin-Lactam] have a reported chemical recovery by SPE of plasma of at least 10%?
A: 1 (yes)

Q: Does COc1ccc(Cl)cc1C(=O)NCCc1ccc(S(=O)(=O)NC(=O)NC2CCCCC2)cc1 [Glibenclamide] have a reported chemical recovery by SPE of plasma of at least 10%?
A: 1 (yes)

Q: Does Nc1cccc2ccccc12 [1-Naphthylamine] have a reported chemical recovery by SPE of plasma of at least 10%?
A: 1 (yes)

Q: Does CC1=CC(=O)NS(=O)(=O)O1 [Acesulfame] have a reported chemical recovery by SPE of plasma of at least 10%?
A: 0 (no)

Q: Does O=C(/C=C/C=C/c1ccc2c(c1)OCO2)N1CCCCC1 [Piperine] have a reported chemical recovery by SPE of plasma of at least 10%?
A: 0 (no)

Q: Does O=P(OC(CCl)CCl)(OC(CCl)CCl)OC(CCl)CCl [TDCPP] have a reported chemical recovery by SPE of plasma of at least 10%?
A: 0 (no)

Q: Does Nc1ccc(/N=N/c2ccccc2)cc1 [Aniline Yellow] have a reported chemical recovery by SPE of plasma of at least 10%?
A: 0 (no)

Q: Does CSc1nc(NC2CC2)nc(NC(C)(C)C)n1 [Irgarol] have a reported chemical recovery by SPE of plasma of at least 10%?
A: 0 (no)

Q: Does CCCCCCCCCCCCCC[N+](C)(C)[O-] [N,N-Dimethyltetradecylamine-N-oxide] have a reported chemical recovery by SPE of plasma of at least 10%?
A: 1 (yes)

Q: Does CCCOP(=O)(OCCC)OCCC [Tripropyl phosphate] have a reported chemical recovery by SPE of plasma of at least 10%?
A: 0 (no)

Q: Does COCC(C)N(C(=O)CCl)c1c(C)csc1C (stereo not drawn) [Dimethenamid] have a reported chemical recovery by SPE of plasma of at least 10%?
A: 0 (no)

Q: Does CN(C)c1ccc(C(=O)c2ccc(N(C)C)cc2)cc1 [Michler's ketone] have a reported chemical recovery by SPE of plasma of at least 10%?
A: 0 (no)

Q: Does CCCC1COC(Cn2cncn2)(c2ccc(Cl)cc2Cl)O1 (stereo not drawn) [Propiconazole] have a reported chemical recovery by SPE of plasma of at least 10%?
A: 0 (no)

Q: Does CC(C)N1C(=O)c2ccccc2NS1(=O)=O [Bentazone] have a reported chemical recovery by SPE of plasma of at least 10%?
A: 1 (yes)

Q: Does CCCN(CCC)c1c([N+](=O)[O-])cc(S(N)(=O)=O)cc1[N+](=O)[O-] [Oryzalin] have a reported chemical recovery by SPE of plasma of at least 10%?
A: 1 (yes)

Q: Does CC/C(=C(\c1ccccc1)c1ccc(OCCN(C)C)cc1)c1ccccc1 [Tamoxifen] have a reported chemical recovery by SPE of plasma of at least 10%?
A: 0 (no)

Q: Does C[C@]12CCC(=O)C=C1CC[C@@H]1[C@@H]2CC[C@@]2(C)[C@H]1CC[C@]2(C)O [17alpha-Methyltestosterone] have a reported chemical recovery by SPE of plasma of at least 10%?
A: 1 (yes)

Q: Does Cc1ccc(-c2cc(C(F)(F)F)nn2-c2ccc(S(N)(=O)=O)cc2)cc1 [Celecoxib] have a reported chemical recovery by SPE of plasma of at least 10%?
A: 1 (yes)

Q: Does OC(Cn1cncn1)(Cn1cncn1)c1ccc(F)cc1F [Fluconazole] have a reported chemical recovery by SPE of plasma of at least 10%?
A: 1 (yes)

Q: Does O=[N+]([O-])c1ccc(O)cc1 [4-Nitrophenol] have a reported chemical recovery by SPE of plasma of at least 10%?
A: 1 (yes)

Q: Does N#Cc1nn(-c2c(Cl)cc(C(F)(F)F)cc2Cl)c(N)c1[S+]([O-])C(F)(F)F (stereo not drawn) [Fipronil] have a reported chemical recovery by SPE of plasma of at least 10%?
A: 1 (yes)

Q: Does COC(=O)Nc1nc2ccccc2[nH]1 [Carbendazim] have a reported chemical recovery by SPE of plasma of at least 10%?
A: 1 (yes)

Q: Does NC(=O)N1c2ccccc2C(O)C(O)c2ccccc21 (stereo not drawn) [10,11-Dihydro-10,11-dihydroxycarbamazepine] have a reported chemical recovery by SPE of plasma of at least 10%?
A: 1 (yes)

Q: Does O=C(NC(=O)c1c(F)cccc1F)Nc1ccc(Cl)cc1 [Diflubenzuron] have a reported chemical recovery by SPE of plasma of at least 10%?
A: 0 (no)
